Biological target: FcεRI-IgG (Homo sapiens)
Construct: consisting of the extracellular domain of FcεR Ifused to the Fc domain of IgG; host or cells: CHO cells
Sequence (P12319 26-205 limits assumed): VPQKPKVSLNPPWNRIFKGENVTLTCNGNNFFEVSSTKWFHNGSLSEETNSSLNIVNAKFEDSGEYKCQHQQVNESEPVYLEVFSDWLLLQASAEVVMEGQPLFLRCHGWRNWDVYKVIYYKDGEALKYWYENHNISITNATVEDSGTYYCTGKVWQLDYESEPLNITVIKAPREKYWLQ
Assay: g3 phage competitive binding ELISA (competition with soluble FcεRI-IgG)
Conditions: truncated peptides on g3 phage; read-out: IC50
pIC50: −log10 of the molar value.
Readout label: pIC50

NLPRCTEGPWGWVCMA [g3c.31] : 8.21

(A) NLPRCTEGPWGWVCMAA [g3c.29]
(B) LPRCTEGPWGWVCMAAD [g3c.1]
(C) NLPRCTEGPWGWVCM [g3c.34]
Query :: Rank descending by pIC50. # answer = labels listed in requested order
Result :: B, A, C

----------
Molecular target: alpha subunit of the human FcεRI receptor (Homo sapiens, UniProt P12319)
Construct: expressed in transfected cells; host or cells: Chinese hamster ovary (CHO FcεRI+) cells
Assay: cell-based 125I-IgE binding inhibition assay on CHO FcεRI+ cells
Settings: IGE037: initially; read-out: IC50
Where a SMILES comes first, the peptide text is derived from it. Bridges are numbered along the chain shown (N, C = ends).
Readout label: IC50

Answered cases to consult:
CC(C)C[C@H](NC(=O)[C@H](C)N)C(=O)N[C@H]1CSSC[C@@H](C(=O)N[C@@H](Cc2ccc(O)cc2)C(=O)N[C@H](C(N)=O)C(C)C)NC(=O)[C@H](C(C)C)NC(=O)[C@H](C)NC(=O)[C@@H]2CCCN2C1=O [IGE037, ALCPAVCYV-nh2] (H-ALCPAVCYV-NH2; disulfide 3-7; N-terminus assumed) : ~300 µM
CSCC[C@H](NC(=O)[C@@H]1CSSC[C@H](NC(=O)[C@H](CCCNC(=N)N)NC(=O)[C@@H]2CCCN2C(=O)[C@H](CC(C)C)NC(=O)[C@H](CC(N)=O)NC(C)=O)C(=O)N[C@@H]([C@@H](C)O)C(=O)N[C@@H](CCC(=O)O)C(=O)NCC(=O)N2CCC[C@H]2C(=O)N[C@@H](Cc2c[nH]c3ccccc23)C(=O)NCC(=O)N[C@@H](Cc2c[nH]c3ccccc23)C(=O)N[C@@H](C(C)C)C(=O)N1)C(=O)O [IGE063, Ac-NLPRCTEGPWGWVCM] (Ac-NLPRCTEGPWGWVCM-OH; disulfide 5-14) : ~1 µM
CC[C@H](C)[C@H](NC(=O)[C@@H]1CSSC[C@H](NC(=O)[C@H](CC(C)C)NC(=O)[C@@H](NC(=O)CNC(=O)[C@@H](N)CCSC)[C@@H](C)O)C(=O)N[C@@H](CC(C)C)C(=O)N[C@@H](CCC(=O)O)C(=O)NCC(=O)N2CCC[C@H]2C(=O)N[C@@H](CCC(=O)O)C(=O)NCC(=O)N[C@@H](Cc2c[nH]c3ccccc23)C(=O)N[C@@H](Cc2ccccc2)C(=O)N1)C(=O)N[C@@H](CCC(=O)O)C(=O)N[C@@H](CO)C(=O)N[C@@H](C)C(=O)O [MGTLCLEGPEGWFCIESA] (H-MGTLCLEGPEGWFCIESA-OH; disulfide 5-14) : > 160 µM

Then there is this compound:
Query :: For CC(=O)N[C@@H](C)C(=O)N[C@@H](CC(C)C)C(=O)N[C@H]1CSSC[C@@H](C(=O)N[C@@H](Cc2ccc(O)cc2)C(=O)N[C@H](C(N)=O)C(C)C)NC(=O)[C@H](C(C)C)NC(=O)[C@H](C)NC(=O)[C@@H]2CCCN2C1=O [IGE038, Ac-ALCPAVCYV-nh2] (Ac-ALCPAVCYV-NH2; disulfide 3-7) , what is its reported IC50?
Result :: > 500 µM
